Reported values: IC50 for Hsp90α (Homo sapiens, UniProt P07900), one per item.
Response body: numeric value in nM, unit text excluded.

Solved cases below.
                                test_smiles                         assayed_target  unit_of_measure  obs_value
0  CC(C)c1cc(-n2nnc(C(=O)Nc3c(F)ccc(NS(C)(=O)=O)c3F)c2-c2ccncc2)c(O)cc1O  Hsp90α (Homo sapiens, UniProt P07900)               nM       1700
1  CCS(=O)(=O)Nc1ccc(F)c(NC(=O)c2nnn(-c3cc(C(C)C)c(O)cc3O)c2-c2ccncc2)c1F  Hsp90α (Homo sapiens, UniProt P07900)               nM       1100
2  CCCS(=O)(=O)Nc1ccc(F)c(NC(=O)c2nnn(-c3cc(C(C)C)c(O)cc3O)c2-c2ccncc2)c1F  Hsp90α (Homo sapiens, UniProt P07900)               nM         30

So what's the measured IC50 for this one? CC(C)c1cc(-n2nnc(C(=O)Nc3cccc(NS(C)(=O)=O)c3)c2-c2ccncc2)c(O)cc1O
7
